These measurements were taken from paper PMC10975593.

Tested on: Fibro cell line
Assay: % inhibition on normal cell line
Type: cell-based
Details: read-out: %inhibition at 10 μM
Field: class. Source value: inhibition at 10 µM. Ranges: I = under 2%, II = from 2% up to 20%, III = 20% and over

>>> label_class("O=C(CNC1CCCCC1)Nc1nc2ccccc2s1 [OMS1]")
"I"
>>> label_class("O=C(CNc1ccc(I)cc1)Nc1nc2ccccc2s1 [OMS4]")
"I"
>>> label_class("O=C(CNc1ccc([N+](=O)[O-])cc1)Nc1nc2ccccc2s1 [OMS5]")
"III"
>>> label_class("O=C(CN1CCN(c2ccccn2)CC1)Nc1nc2ccccc2s1 [OMS13]")
"III"
>>> label_class("O=C(CN1CCN(c2cccc(O)c2)CC1)Nc1nc2ccccc2s1 [OMS10]")
"II"
>>> label_class("CNC(=O)c1cc(Oc2ccc(NC(=O)Nc3ccc(Cl)c(C(F)(F)F)c3)cc2)ccn1 [Sorafenib, reference compound]")
"II"
>>> label_class("O=C(CN1CCN(CC(=O)Nc2nc3ccccc3s2)CC1)Nc1nc2ccccc2s1 [OMS16]")
"III"
>>> label_class("NS(=O)(=O)c1ccc(NCC(=O)Nc2nc3ccccc3s2)cc1 [OMS6]")
"I"
>>> label_class("O=C(CN1CCOCC1)Nc1nc2ccccc2s1 [OMS9]")
"II"
>>> label_class("N=C(N)NS(=O)(=O)c1ccc(NCC(=O)Nc2nc3ccccc3s2)cc1 [OMS7]")
"I"
